Taken from ChEMBL document CHEMBL5236610.

Target: Steroid 17-alpha-hydroxylase/17,20 lyase (Homo sapiens)
Sequence (P05093 whole entry): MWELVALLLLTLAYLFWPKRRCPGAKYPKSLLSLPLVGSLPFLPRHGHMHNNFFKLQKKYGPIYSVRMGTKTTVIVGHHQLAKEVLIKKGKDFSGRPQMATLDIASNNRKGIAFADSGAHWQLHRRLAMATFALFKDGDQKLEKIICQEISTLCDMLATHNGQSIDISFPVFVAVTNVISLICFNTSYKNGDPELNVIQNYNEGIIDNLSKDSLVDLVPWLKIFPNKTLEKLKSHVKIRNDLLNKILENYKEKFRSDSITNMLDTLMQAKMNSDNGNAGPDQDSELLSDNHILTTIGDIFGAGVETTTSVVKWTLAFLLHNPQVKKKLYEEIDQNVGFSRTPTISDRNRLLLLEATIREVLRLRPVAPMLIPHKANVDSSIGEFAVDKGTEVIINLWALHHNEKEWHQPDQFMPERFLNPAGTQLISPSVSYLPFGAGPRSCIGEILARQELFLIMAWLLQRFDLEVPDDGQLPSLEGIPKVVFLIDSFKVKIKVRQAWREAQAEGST
Experiment: Inhibition of CYP17AI in human LNCaP cells
Type: ADME, cell-based
pIC50: −log10 of the molar value.
measured attribute: pIC50

| compound | readout number |
| --- | --- |
| C[C@]12CC[C@H](O)CC1=CC[C@@H]1[C@@H]2CC[C@]2(C)C(n3cnc4ccccc43)=CC[C@@H]12 [GALETERONE] | 5.45 |

====

Biological target: von Hippel-Lindau disease tumor suppressor/Androgen receptor (Homo sapiens, UniProt P10275+P40337)
Sequence (P10275 whole entry, looked up, change not shown): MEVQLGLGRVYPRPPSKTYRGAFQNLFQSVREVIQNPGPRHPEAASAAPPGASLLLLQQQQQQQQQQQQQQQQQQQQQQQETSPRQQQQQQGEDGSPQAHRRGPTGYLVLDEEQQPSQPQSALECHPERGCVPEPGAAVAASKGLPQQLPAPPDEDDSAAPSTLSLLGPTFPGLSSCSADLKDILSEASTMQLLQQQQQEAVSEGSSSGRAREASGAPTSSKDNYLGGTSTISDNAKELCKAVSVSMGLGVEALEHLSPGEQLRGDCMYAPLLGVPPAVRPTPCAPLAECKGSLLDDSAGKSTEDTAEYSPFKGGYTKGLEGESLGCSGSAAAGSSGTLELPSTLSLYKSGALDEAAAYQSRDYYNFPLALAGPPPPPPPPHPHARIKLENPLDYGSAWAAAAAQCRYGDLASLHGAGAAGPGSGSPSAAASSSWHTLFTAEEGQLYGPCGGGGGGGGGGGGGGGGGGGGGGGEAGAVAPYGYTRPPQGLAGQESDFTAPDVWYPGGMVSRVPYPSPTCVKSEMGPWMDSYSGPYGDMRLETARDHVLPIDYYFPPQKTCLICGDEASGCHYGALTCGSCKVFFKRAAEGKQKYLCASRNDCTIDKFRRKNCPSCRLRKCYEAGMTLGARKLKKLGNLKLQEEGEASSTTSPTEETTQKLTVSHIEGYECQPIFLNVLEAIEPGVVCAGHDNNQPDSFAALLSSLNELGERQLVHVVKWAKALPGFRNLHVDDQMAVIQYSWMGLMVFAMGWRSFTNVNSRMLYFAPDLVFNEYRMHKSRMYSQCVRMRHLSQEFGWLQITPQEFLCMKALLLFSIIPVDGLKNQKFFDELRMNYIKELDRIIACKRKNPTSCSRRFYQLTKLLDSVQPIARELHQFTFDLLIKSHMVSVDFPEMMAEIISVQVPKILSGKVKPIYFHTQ
Sequence (P40337 whole entry, looked up, change not shown): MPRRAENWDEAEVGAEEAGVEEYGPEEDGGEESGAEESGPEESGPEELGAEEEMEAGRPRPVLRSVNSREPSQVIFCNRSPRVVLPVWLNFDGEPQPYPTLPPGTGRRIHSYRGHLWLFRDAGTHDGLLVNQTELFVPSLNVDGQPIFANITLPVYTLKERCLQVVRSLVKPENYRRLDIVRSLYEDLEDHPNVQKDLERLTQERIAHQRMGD
Assay: PROTAC activity at VHL/AR-V7 in human 22Rv1 cells assessed as induction of AR-V7 degradation incubated for 24 hrs by immunoblot assay
Format: cell-based

| structure notation | unit string | EC50 |
| --- | --- | --- |
| Cc1ncsc1-c1ccc([C@H](C)NC(=O)[C@@H]2C[C@@H](O)CN2C(=O)[C@@H](NC(=O)CCCCNC(=O)COc2c(-c3csc(N4CCOCC4)n3)ccc(F)c2F)C(C)(C)C)cc1 | nM | 370 |

====

System: CWR22R
Test: Antiproliferative activity against human 22Rv1 cells assessed as reduction in cell viability
Assay type: functional, cell-based

| structure notation | IC50 (nM) |
| --- | --- |
| CC1(C)CC(NC(=O)[C@H](Cc2ccc(OCc3c(Cl)cccc3Cl)cc2)NC(=O)/C(=C\c2ccccc2)c2ccccc2)CC(C)(C)N1 | 2600 |

====

Biological target: Protein cereblon/Androgen receptor (Homo sapiens, UniProt P10275+Q96SW2)
Sequence (P10275 whole entry): as the sequence (P10275 whole entry, looked up, change not shown) above
Sequence (Q96SW2 whole entry): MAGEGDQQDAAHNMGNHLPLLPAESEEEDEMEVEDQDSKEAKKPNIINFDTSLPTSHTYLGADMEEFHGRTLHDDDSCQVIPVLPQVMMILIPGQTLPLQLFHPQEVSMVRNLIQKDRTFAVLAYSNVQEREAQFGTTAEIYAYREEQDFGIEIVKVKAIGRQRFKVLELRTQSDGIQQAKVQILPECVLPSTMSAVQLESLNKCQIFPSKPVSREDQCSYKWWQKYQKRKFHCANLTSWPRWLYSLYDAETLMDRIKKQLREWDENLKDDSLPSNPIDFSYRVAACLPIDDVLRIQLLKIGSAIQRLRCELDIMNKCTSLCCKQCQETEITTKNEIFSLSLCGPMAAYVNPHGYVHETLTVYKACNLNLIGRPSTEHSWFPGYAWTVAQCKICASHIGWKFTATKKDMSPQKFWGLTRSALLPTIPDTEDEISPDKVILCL
Experiment: Protac activity at CRBN/Androgen receptor in human LNCaP cells assessed as Androgen receptor degradation incubated for 24 hrs
pEC50: −log10 of the molar value.

| compound | assay target | pEC50 |
| --- | --- | --- |
| CC(O)(COc1ccc(OCCOCCOc2cccc3c2C(=O)N(C2CCC(=O)NC2=O)C3=O)cc1)C(=O)Nc1ccc(C#N)c(I)c1 (stereo unspecified) | Protein cereblon/Androgen receptor (Homo sapiens, UniProt P10275+Q96SW2) | 5.28 |

====

Biological target: Androgen receptor (Homo sapiens)
Sequence (P10275 whole entry, the tested form may be a part): as the sequence (P10275 whole entry, looked up, change not shown) above
Experiment: Induction of degradation of AR LBD in human LNCaP cells
Format: cell-based
measured attribute: EC50 (nM)

| structure notation | assay target | measured attribute | unit string | readout number |
| --- | --- | --- | --- | --- |
| CC1(C)C(=O)N(c2ccc(C#N)c(C(F)(F)F)c2)C(=S)N1CCCC(=O)NCCOCCOC(=O)CC12CC3CC(CC(C3)C1)C2 | Androgen receptor (Homo sapiens) | EC50 | nM | 1000 |
